measurementName: melting point

Give its melting point value. Item: O=C(Nc1cccc(F)c1)Nc1ccc2c(c1)COC1(CCN(C3CCC3)CC1)O2 [Example 245] 227 to 228 °C

Give its melting point value. Item: CCOC1CCN(c2ccc3c(c2)CCC2(CCN(C4CCC4)CC2)O3)CC1 [Example 391] 285 to 290 °C

Give its melting point value. Item: O=C1N(c2ccccc2)CCN1c1ccc2c(c1)CCC1(CCN(C3CCC3)CC1)O2 [Example 229] 182 to 185 °C

Give its melting point value. Item: COc1ccc(-c2ccc3c(c2)COC2(CCN(C4CC(C(=O)O)C4)CC2)O3)cn1 (centres unmarked) [Example 734] 260 to 262 °C

Give its melting point value. Item: CCN(CC)C(=O)N1CCN(c2ccc3c(c2)COC2(CCN(C4CCC4)CC2)O3)CC1 [Example 351] 113 to 116.1 °C

Give its melting point value. Item: COCCNC(=O)c1ccc(-c2ccc3c(c2)COC2(CCN(C4CCC4)CC2)O3)cc1Cl [Example 330] 234 to 235 °C

Give its melting point value. Item: F[C@@H]1CCN(c2ccc3c(c2)CCC2(CCN(C4CCC4)CC2)O3)C1 [Example 414] 275 to 280 °C

Give its melting point value. Item: NC(=O)c1ccc(-c2ccc3c(c2)COC2(CCN(C4CCC4)CC2)O3)c(Cl)c1 [Example 715] 112 to 114 °C

Every entry's value here was drawn from patent US8513232B2.
